biological target: Eukaryotic initiation factor 4A-I (Mus musculus); test: Binding affinity to eIF4A1 in mouse embryonic fibroblasts at 20 uM by streptavidin pulldown assay
Calls of active or inactive are those of the source. The calls are words filed in the database; no cut-off is given here.
Assign a class; possible classes are active, inactive

Prompt line: Each compound tested received a call. Report the one for COC(=O)[C@H]1[C@@H](O)[C@@]2(O)c3c(OC)cc(O[C@@H]4O[C@@H]([C@@H](O)CO)CO[C@H]4OC)cc3O[C@@]2(c2ccc(OC)cc2)[C@@H]1c1ccccc1 .
Response line: active

---

target: Eukaryotic initiation factor 4A-I (Mus musculus) (UniProt P60843); assay: Binding affinity to eIF4A1 in mouse embryonic fibroblasts at 20 uM by streptavidin pulldown assay
Sequence (P60843 whole entry): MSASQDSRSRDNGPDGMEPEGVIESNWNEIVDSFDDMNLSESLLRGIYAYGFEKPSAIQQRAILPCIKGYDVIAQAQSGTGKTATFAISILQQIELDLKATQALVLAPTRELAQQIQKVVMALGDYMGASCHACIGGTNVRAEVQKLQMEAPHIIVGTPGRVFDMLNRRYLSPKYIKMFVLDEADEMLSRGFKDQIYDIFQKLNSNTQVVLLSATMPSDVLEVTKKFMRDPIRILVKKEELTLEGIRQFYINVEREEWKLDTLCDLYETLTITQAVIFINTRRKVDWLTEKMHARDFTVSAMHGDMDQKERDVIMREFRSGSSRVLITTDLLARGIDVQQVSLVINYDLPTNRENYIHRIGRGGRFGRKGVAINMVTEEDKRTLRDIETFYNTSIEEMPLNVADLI
Activity calls are given as the source filed them. The rule behind the calls is not given here.
Assign a class; possible classes are class 1 (active), class 0 (inactive)

Solved entries:
compound structure string: COc1ccc([C@@]23Oc4cc(OC)cc(OC)c4[C@]2(O)[C@H](O)[C@H](C(=O)NCc2cn(CCCOCCOCCOCCCNC(=O)CCCC[C@@H]4SC[C@@H]5NC(=O)N[C@@H]54)nn2)[C@H]3c2ccccc2)cc1
target system: Eukaryotic initiation factor 4A-I (Mus musculus) (UniProt P60843)
cat: class 1

compound structure string: COc1ccc([C@@]23Oc4cc(O[C@@H]5O[C@@H]([C@@H](O)CO)CO[C@H]5OC)cc(OC)c4[C@]2(O)[C@H](O)[C@H](C(=O)NCc2cn(CCCOCCOCCOCCCNC(=O)CCCC[C@@H]4SC[C@@H]5NC(=O)N[C@@H]54)nn2)[C@H]3c2ccccc2)cc1
target system: Eukaryotic initiation factor 4A-I (Mus musculus) (UniProt P60843)
cat: class 1

compound structure string: O=C(O)CCCC[C@@H]1SC[C@@H]2NC(=O)N[C@@H]21
target system: Eukaryotic initiation factor 4A-I (Mus musculus) (UniProt P60843)
cat: class 0

Prompt line: Each molecule tested received a call. Report the one for COc1ccc([C@@]23Oc4cc(OC)cc(OC)c4[C@]2(O)[C@H](O)[C@H](C(=O)N(C)C)[C@H]3c2ccccc2)cc1 .
Response line: class 1

Prompt line: Each molecule tested received a call. Report the one for COC(=O)[C@H]1[C@@H](O)[C@@]2(O)c3c(OC)cc(OC)cc3O[C@@]2(c2ccc(OC)cc2)[C@@H]1c1ccccc1 .
Response line: class 1
